All values here come from ChEMBL document CHEMBL1125204.

system: Leishmania donovani; assay: Apparent kinetic activity measured for protein carboxyl methyltransferase in Leishmania donovani promastigotes; format: ADME, organism-based; settings: in vitro
attribute measured: Km
Answer format: number, then unit.

IN: Km lookup needed for C[S+](CC[C@H](N)C(=O)[O-])C[C@H]1O[C@@H](n2cnc3c(N)ncnc32)[C@H](O)[C@@H]1O (stereo partly specified) [ADEMETIONINE] , thanks.
OUT: 55 µM

* * *

The compounds listed here are annotated with their Ratio.
assay: It is the ratio of Ki value to that of Km.; assay type: ADME
Write no unit; give the number alone.

In the examples that follow, each entry is paired with its recorded Ratio.
INSERT INTO measurements (compound, attribute_measured, value_measured) VALUES
  ('Nc1ncnc2c1ncn2[C@@H]1O[C@H](CC(N)CCCC(O)CO)[C@@H](O)[C@H]1O (some centres undefined)', 'Ratio', 8.3),
  ('Nc1ncnc2c1ncn2[C@@H]1O[C@H](CC2CCNC2)[C@@H](O)[C@H]1O (stereo in doubt; 6a)', 'Ratio', 2.1),
  ('NCCC(CN)C[C@H]1OC(n2cnc3c(N)ncnc32)[C@H](O)[C@@H]1O (some centres undefined)', 'Ratio', 23.3);

Let us move to another entry and its Ratio.
IN: // returns reported Ratio for input Nc1ncnc2c1ncn2[C@@H]1O[C@H](CC(N)CCCC(=O)O)[C@@H](O)[C@H]1O (stereo in doubt; 3b)
OUT: 6.9
